Record form. Attribute: koff. Fill in for each entry.
# Tested system: T1, his-tagged human PVRIG (h-PVRIG-his) recombinant protein (human, UniProt Q6DKI7 41-171, limits assumed)
# T1 construct: bought from Acrobiosystems; also called Human PVRIG-his; human PVRIG recombinant protein; not shown: his tag
# T1 sequence (looked up): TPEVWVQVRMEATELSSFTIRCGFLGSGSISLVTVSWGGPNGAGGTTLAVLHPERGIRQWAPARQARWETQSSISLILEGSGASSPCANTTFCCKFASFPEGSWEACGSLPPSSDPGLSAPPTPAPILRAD
# Assay text: BLI (Fortebio), antibody on Protein A sensor, 1:1 fit
Use s⁻¹ as the unit, but write only the number.

Exercise: koff for anti-PVRIG antibody 30 (antibody, human IgG4 S228P, F234A L235A, V domains shown, no light chain) VH: HVQLVESGGGSVQAGGSLRLSCEASGYSYSGDCMGWFRRAPGKERDEGVATIDNAGRIKYADSVKGRFTISHGNGKYILYLQMNSLKPEDTDMYYCAAGWTFGGNCSPADWGQGTQVTVSS ?
Key: 0.000205

Exercise: Please do the same for anti-PVRIG antibody 151 (antibody, human IgG4 S228P, F234A L235A, V domains shown, no light chain) VH: HVQLVESGGGSVQAGGSLRLSCVASASGFTYRPYCMAWFRQAPGKEREAVAGIDIFGGTTYADSVKGRFTASRDNAGFSLFLQMNDLKPEDTAMYYCAAGDSPDGRCPPLGQGLNYWGQGTQVTVSS as well.
Key: 5.22e-05

Exercise: Please do the same for anti-PVRIG antibody 39 (antibody, human IgG4 S228P, F234A L235A, V domains shown, no light chain) VH: QVQLVESGGGSVQAGGSLRLSCAASRYTSRTDCMGWFRQAPGKEREGVAHIDSDGIPRYVESVKGRFTISQDHAKNTLYLQMNSLKPEDSATYYCVVGFKFGDYCAPNDWGQGTQVTVSS as well.
Key: 0.000169

Exercise: Please do the same for anti-PVRIG antibody 38 (antibody, human IgG4 S228P, F234A L235A, V domains shown, no light chain) VH: QVQLVESGGGSVQAGGSLRLSCAASPSTYGPSDMAWFRQAPGKQREGVATISAAGRLTYYTDSVRGRFTISRDNAKNTMYLQMNSLKPEDTAMYYCAADFAGGSSLFADYKYWGQGTQVTVSS as well.
Key: 0.000287
